Data origin, for the record: patent EP4692071A1

Test: Residual rate (A90/A0×100) after 90 h accelerated deterioration in xenon weather meter X25, color developing durability
Type: physicochemical
Details: photochromic laminate by coating method; xenon weather meter 90 hours
MEASURED_PROPERTY: Residual rate (%)
Please reply with the bare figure in % and do not write the unit itself.

Below, each entry is followed by its recorded Residual rate (%) result.
molecule="CCCC1(CCC)c2ccccc2-c2c1c1c(c3cc(OC)c(N(C)c4ccccc4)cc23)OC(c2ccc(OC)cc2)(c2ccc(N(c3ccccc3)c3ccccc3)cc2)C=C1 (centres unmarked)" numeric_value=80
molecule=CCCOc1ccc(C2(c3ccc(OCCC)cc3)C=Cc3c4c(c5cc(N(CCOC)c6ccccc6)c(OC)cc5c3O2)-c2ccccc2C42CCCCCCC2)cc1 numeric_value=80
molecule=CCCC1(CCC)c2ccccc2-c2c1c1c(c3cc(OC)c(N4CCOc5ccccc54)cc23)OC(c2ccc(OC)cc2)(c2ccc(OC)cc2)C=C1 numeric_value=82
molecule=CCCC1(CCC)c2cc(C)ccc2-c2c1c1c(c3cc(OC)c(N(C)c4ccccc4)cc23)OC(c2ccc(OC)cc2)(c2ccc(OC)cc2)C=C1 numeric_value=78

Please turn your attention to the following entry.
stdin: What does the data say about its Residual rate (%)? Entry: COc1ccc(C2(c3ccc(N4CCOCC4)cc3)C=Cc3c4c(c5cc(N6CCOc7ccccc76)c(C)cc5c3O2)-c2ccc(OC)cc2C4(CCCCF)CCCCF)cc1 (centres unmarked)
stdout: 73
